Source: ChEMBL document CHEMBL4052601

System: A549
experiment: Antiproliferative activity against human A549 cells at 10 uM after 24 hrs by MTS assay relative to control
Format: functional
reported.conditions: A549, 24 h
Each record's inhibition at 10 µM is compared with low (below 2%), mid (2% to below 5%), high (5% or more) to give its class.

Example entries begin here.
>>> class_label("CC(C)=CCc1cc([C@H]2Oc3c(ccc(O)c3CC=C(C)C)C(=O)C2O)ccc1O (some centres undefined)")
"high"
>>> class_label("CC(C)=CCc1cc2c(cc1O)OCC(c1ccc(O)c3c1OC(C)(C)C=C3)=C2")
"high"
>>> class_label("C=CC(C)(C)c1cc(/C=C/C(=O)c2ccc(O)cc2)c(OC)cc1O")
"high"
>>> class_label("COc1ccc(C2(O)COc3c(ccc(O)c3CC=C(C)C)C2=O)c(O)c1 (centres undefined)")
"high"

Please let me know in which category the item `CC1(C)C=Cc2c(ccc3c2OCC(c2ccc(O)cc2O)=C3)O1` belongs. mid

Please let me know in which category the item `O=C1C[C@@H](c2ccc(O)cc2)Oc2cc(O)cc(O)c21` belongs. low

Please let me know in which category the item `CC1(C)C=Cc2c(ccc3cc(-c4ccc(O)cc4O)c(=O)oc23)O1` belongs. mid
